Listing of recorded inhibition at 10 µM by entry.
- Experimental target: JAK2 kinase domain (JH1) (Homo sapiens (Human), UniProt O60674)
- Sequence (O60674 849-1124): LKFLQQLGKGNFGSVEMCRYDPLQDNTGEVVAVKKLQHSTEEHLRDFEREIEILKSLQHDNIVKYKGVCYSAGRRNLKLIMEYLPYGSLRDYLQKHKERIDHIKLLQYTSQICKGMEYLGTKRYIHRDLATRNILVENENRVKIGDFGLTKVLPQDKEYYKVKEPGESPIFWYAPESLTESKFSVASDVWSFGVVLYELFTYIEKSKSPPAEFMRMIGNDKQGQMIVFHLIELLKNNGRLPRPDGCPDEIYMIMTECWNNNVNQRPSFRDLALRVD
- Test summary: JAK2 Radioactive Kinase Assay
- Format: biochemical
- Particulars: compound at 10 μM; ATP 10 μM; read-out: JAK2 JH1% Inhibition @ 10 μM
Recorded endpoint: inhibition at 10 µM

Molecule	Reported value
CNc1cc(Nc2cccc3ocnc23)nc2c(C(=O)NCC(C)(C)CO)cnn12	< 50%
CNc1cc(Nc2cccn(C3=NC(C)(C)CS3)c2=O)nc2c(C(=O)NC3CC3)cnn12	< 50%
CNc1cc(Nc2cccnc2O[C@@H]2CCOC2)nc2c(C(=O)NC3CC3)cnn12	< 50%
CNc1cc(Nc2cc(Cl)cn(C3CNC3)c2=O)nc2c(C(N)=O)cnn12	< 50%
CNc1cc(Nc2cccn(-c3cnn(C[C@H]4CCOC4)c3)c2=O)nc2c(C(=O)NC3CC3)cnn12	< 50%
CNc1cc(Nc2cccn(C3CCCCC3)c2=O)nc2c(C(=O)N[C@H]3C[C@H]3F)cnn12	< 50%
CNc1cc(Nc2cccn(-c3cc(C)nn3C)c2=O)nc2c(C(=O)NC3CCC3)cnn12	< 50%
[2H]C([2H])([2H])Oc1ncccc1Nc1cc(NC)n2ncc(C(=O)N[C@@H]3CCC[C@@H](O)C3)c2n1	< 50%
CNc1cc(Nc2cccn(C3CCN(C)CC3)c2=O)nc2c(C(=O)NCC3(CO)CC3)cnn12	< 50%
CNc1cc(Nc2cccn(CCOC3CC3)c2=O)nc2c(C(=O)NC3CC[C@H]3O)cnn12 (stereo in doubt)	< 50%
CNc1cc(-c2nn(C3CCOCC3)c3ncccc23)nc2c(C(=O)NC3CC3)cnn12	< 50%
CNc1cc(Nc2cccn(-c3nccs3)c2=O)nc2c(C(=O)N[C@H]3C[C@H]3F)cnn12	< 50%
CNc1cc(Nc2cc(Cl)cn(-c3cnc(C(=O)N(C)C)cn3)c2=O)nc2c(C(=O)N[C@H]3C[C@H]3F)cnn12	< 50%
CNc1cc(Nc2cccn([C@H]3CCCOC3)c2=O)nc2c(C(=O)NC3CC3)cnn12	< 50%
CNc1cc(Nc2cccnc2OC)nc2c(C(=O)NC[C@@H](C)CO)cnn12	< 50%
CNc1cc(Nc2cc(F)cn(-c3cc(C)n(C)n3)c2=O)nc2c(C(=O)N[C@H]3C[C@H]3F)cnn12	< 50%
CNc1cc(-c2cn(C(C)C)c3ncccc23)nc2c(C(=O)NC3CCC3)cnn12	< 50%

###

- Experimental target: human TYK2 (JH2domain-pseudokinase) (Homo sapiens (Human))
- Sequence (P29597 556-888): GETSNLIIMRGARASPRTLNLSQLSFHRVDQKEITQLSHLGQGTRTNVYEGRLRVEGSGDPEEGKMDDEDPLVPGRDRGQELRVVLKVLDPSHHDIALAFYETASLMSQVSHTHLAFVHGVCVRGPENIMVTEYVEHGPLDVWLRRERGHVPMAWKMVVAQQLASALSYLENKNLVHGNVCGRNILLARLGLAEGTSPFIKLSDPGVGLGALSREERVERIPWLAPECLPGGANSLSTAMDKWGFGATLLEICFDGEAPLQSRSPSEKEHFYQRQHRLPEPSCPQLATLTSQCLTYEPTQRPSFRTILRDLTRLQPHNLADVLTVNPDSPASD
- Test summary: TYK2 JH2 Domain Binding Assay (KINOMEscan)
pKd: −log10 of the molar value.

Molecule	Experimental target	pKd
CNc1cc(Nc2cccnc2O[C@H]2CC[C@H](O)CC2)nc2c(C(=O)N[C@H]3C[C@H]3F)cnn12	human TYK2 (JH2domain-pseudokinase) (Homo sapiens (Human))	> 9.70
CNc1cc(Nc2cccn3cnnc23)nc2c(C(=O)N[C@@H]3CC[C@@H]3O)cnn12	human TYK2 (JH2domain-pseudokinase) (Homo sapiens (Human))	> 9.70
CNc1cc(Nc2cccnc2O[C@@H]2CCOC2)nc2c(C(=O)NC3CC3)cnn12	human TYK2 (JH2domain-pseudokinase) (Homo sapiens (Human))	9.00 to 9.70
CNc1cc(Nc2cccn([C@H]3CC[C@@H]3O)c2=O)nc2c(C(=O)N[C@H]3CC[C@@H]3OC)cnn12 [I-1385]	human TYK2 (JH2domain-pseudokinase) (Homo sapiens (Human))	9.00 to 9.70
CNc1cc(Nc2cccn(-c3ccccn3)c2=O)nc2c(C(=O)NC[C@H](C)CO)cnn12	human TYK2 (JH2domain-pseudokinase) (Homo sapiens (Human))	> 9.70
CNc1cc(Nc2cccn(-c3cc(C)on3)c2=O)nc2c(C(=O)NC3CCC3)cnn12	human TYK2 (JH2domain-pseudokinase) (Homo sapiens (Human))	> 9.70
CNc1cc(Nc2cccn(-c3nc(C)co3)c2=O)nc2c(C(=O)N[C@@H]3CC[C@H]3O)cnn12 [I-768]	human TYK2 (JH2domain-pseudokinase) (Homo sapiens (Human))	> 9.70
CNc1cc(-c2cn(CCN3CCN(C)CC3)c3ncccc23)nc2c(C(=O)N[C@H]3CC[C@H]3O)cnn12 (stereo in doubt)	human TYK2 (JH2domain-pseudokinase) (Homo sapiens (Human))	> 9.70
CNc1cc(Nc2cccn([C@H]3CCCC[C@H]3OC)c2=O)nc2c(C(=O)N[C@@H]3C[C@@H]3F)cnn12	human TYK2 (JH2domain-pseudokinase) (Homo sapiens (Human))	9.00 to 9.70
CNc1cc(Nc2cccn([C@H]3CC[C@@H]3O)c2=O)nc2c(C(=O)N[C@@H]3CCC[C@@H](OC)C3)cnn12	human TYK2 (JH2domain-pseudokinase) (Homo sapiens (Human))	> 9.70
CNc1cc(Nc2cc(Cl)cn(-c3cn(C4CC4)nc3C)c2=O)nc2c(C(N)=O)cnn12	human TYK2 (JH2domain-pseudokinase) (Homo sapiens (Human))	9.00 to 9.70
CNc1cc(Nc2cccn([C@@H]3C[C@H]3F)c2=O)nc2c(C(=O)N[C@@H]3CC[C@H]3O)cnn12 [I-1402]	human TYK2 (JH2domain-pseudokinase) (Homo sapiens (Human))	8.00 to 9.00
CNc1cc(Nc2cccn([C@H]3CC[C@H](OC)CC3)c2=O)nc2c(C(=O)N[C@H]3CC[C@H]3O)cnn12 [I-561]	human TYK2 (JH2domain-pseudokinase) (Homo sapiens (Human))	9.00 to 9.70
CNc1cc(Nc2cccn([C@H]3CC[C@](C)(O)CC3)c2=O)nc2c(C(=O)N[C@H]3C[C@H]3F)cnn12	human TYK2 (JH2domain-pseudokinase) (Homo sapiens (Human))	> 9.70
CNc1cc(-c2cn(C3CCOCC3)c3ncccc23)nc2c(C(=O)N[C@H]3CC[C@@H]3O)cnn12	human TYK2 (JH2domain-pseudokinase) (Homo sapiens (Human))	8.00 to 9.00
CNc1cc(Nc2cccn(-c3ccc(C4CC4)nn3)c2=O)nc2c(C(=O)NC3CC3)cnn12	human TYK2 (JH2domain-pseudokinase) (Homo sapiens (Human))	> 9.70
